Target: T1, Cynomolgus CD3εδ Fc heterodimer (Cy CD3ε Fc / CD3δ Fc-HIS) (cynomolgus, UniProt Q95LI8 22-100)
T1 chain 1: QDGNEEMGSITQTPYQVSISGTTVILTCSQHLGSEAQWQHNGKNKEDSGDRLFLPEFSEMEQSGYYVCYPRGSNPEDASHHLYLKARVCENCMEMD
T1 chain 2: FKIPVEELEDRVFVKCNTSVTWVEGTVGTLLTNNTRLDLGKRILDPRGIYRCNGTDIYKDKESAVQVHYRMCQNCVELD
Test: BLI (Octet), IgG on AHC sensor, pH 7.4
pKd: −log10 of the molar value.
# Lookup of reported pKd keyed by entry

binder	pKd
LAD9953_P01_H01 (ADI-57437) (antibody, V domains shown, IgG; also called Ab167) VH: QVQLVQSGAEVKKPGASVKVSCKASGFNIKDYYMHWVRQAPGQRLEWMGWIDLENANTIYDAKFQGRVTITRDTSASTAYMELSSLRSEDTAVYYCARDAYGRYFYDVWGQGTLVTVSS VL: DIVMTQSPDSLAVSLGERATINCKSSQSLLHARTHKNYLAWYQQKPGQPPKLLIYWASTRESGVPDRFSGSGSGTDFTLTISSLQAEDVAVYYCKQSYSRRTFGGGTKVEIK	7.06
LAD9964_P01_C07 (ADI-57444) (antibody, V domains shown) VH: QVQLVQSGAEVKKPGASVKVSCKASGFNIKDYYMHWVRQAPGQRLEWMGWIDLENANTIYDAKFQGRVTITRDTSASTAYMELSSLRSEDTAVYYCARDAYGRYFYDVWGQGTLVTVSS VL: DIVMTQSPDSLAVSLGERATINCKSSQSLLNARTHKNYLAWYQQKPGQPPKLLIYWASTRESGVPDRFSGSGSGTDFTLTISSLQAEDVAVYYCKQSYSRRTFGGGTKVEIK	8.33
SAD10319_P02_C06 (ADI-57322) (antibody, V domains shown, IgG; also called Ab10) VH: QVQLVQSGAEVKKPGASVKVSCKASGYTFTSYAMHWVRQAPGQRLEWMGWINPVTGATVYSQKFQGRVTITRDTSASTAYMELSSLRSEDTAVYYCARDAYGHYFYDVWGQGTLVTVSS VL: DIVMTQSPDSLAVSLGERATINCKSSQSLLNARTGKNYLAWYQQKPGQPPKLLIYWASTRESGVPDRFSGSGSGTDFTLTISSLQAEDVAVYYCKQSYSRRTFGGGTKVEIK	7.29
SAD10320_P01_E02 (ADI-57349) (antibody, V domains shown, IgG; also called Ab55) VH: QVQLVQSGAEVKKPGASVKVSCKASGFNIKDYYMHWVRQAPGQRLAWMGWIDLENANTIYDAKFQGRVTITRDTSASTAYMELSSLRSEDTAVYYCARDAYGRHFYDVWGQGTLVTVSS VL: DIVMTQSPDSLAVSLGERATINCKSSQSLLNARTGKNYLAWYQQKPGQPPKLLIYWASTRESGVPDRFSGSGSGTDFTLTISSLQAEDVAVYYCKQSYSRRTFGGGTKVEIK	7.16
